All values here come from paper PMC3245871.

- Tested on: mAb Z13e1 (human)
- Assay protocol: ELISA
Quantity: IC50

Problem: Consider the binder NWFDITNWLWYIKKKK [negative peptide control 94.1] and give its measured IC50.
Result: > 5 µM
